Biological target: EFCAB7; note: reference of the scale not given here
Assay: pooled miR-30 sensor sort-seq; sequence = guide strand
Details: shRNA
measureName: sensor-assay potency score (higher = more potent)
API doc: respond with a numeric literal and nothing else, no unit.

[
  {
    "primarySequence": "TTCATCTCTATATACAAGTTGG",
    "studyTarget": "EFCAB7",
    "measuredNumber": -0.725
  }
]

According to the records, this sequence TTCGGTAAAACACACAAGCTGT displays sensor-assay potency score (higher = more potent) of -0.242

According to the records, this sequence TTCTCTATTTCGTAGTTCGGTA displays sensor-assay potency score (higher = more potent) of -1.01

According to the records, this sequence TAGTCTTGAGACATTGCTCGTT displays sensor-assay potency score (higher = more potent) of 0.405

According to the records, this sequence TTTGTATCAAAATTCTCTCTGC displays sensor-assay potency score (higher = more potent) of 0.129

According to the records, this sequence TTTACTGTCAACCTCTAGTTTT displays sensor-assay potency score (higher = more potent) of -1.12

According to the records, this sequence TTGTTTTCAATAACTGACGTTA displays sensor-assay potency score (higher = more potent) of -0.29

According to the records, this sequence TTCTCGATCATTAGCTTCCATT displays sensor-assay potency score (higher = more potent) of -1.27
